- Test system: NCI-H460
- protocol: NCI tumour cell line growth inhibition, 48 h
Activity calls are given as the source filed them. Cut-off read from the data, not from the text of the source: active = GI50 up to about 1.1 µM and inactive = higher.
Choose the fitting class; nothing outside 1.0 (active), 0.0 (inactive) is accepted.

| molecule | system | group |
| --- | --- | --- |
| COc1ccc(N2C(=O)C(=O)N(c3ccc(/N=N\c4ccccc4)cc3)C2=S)cc1 | NCI-H460 | 0.0 |

Consider now this further molecule.
Lab log entry: Cc1cc(C)n(C(C)(C(=O)Cc2ccccc2)n2nc(C)cc2C)n1 — outcome as called in the assay?
0.0

---

- System: SK-OV-3
- protocol: NCI tumour cell line growth inhibition, 48 h
The source made the active and inactive calls. Rule as the data show it: active = GI50 up to about 1.1 µM and inactive = higher.
Examples of compounds with documented GI50 follow.

Some compounds with known GI50 results, for comparison:
| compound | GI50 |
| --- | --- |
| Cc1ccc2nc3n(c2c1)C(c1c(F)cccc1F)SC3 (centres undefined) | > 100 µM (inactive) |
| Cc1ccc(/N=N/c2c(O)ccc3ccccc23)c(C)c1 | > 100 µM (inactive) |
| Nc1nnc(-c2ccco2)c(-c2ccco2)n1 | > 100 µM (inactive) |

Next up:
Using the record for Cc1nc(-n2nc(-c3ccccc3)cc2-c2ccccc2)sc1C(/C=C\c1ccc([N+](=O)[O-])cc1)=N/NC(=S)NN , report its GI50.
> 85.7 µM (inactive)

---

- Tested on: SNB-19
- protocol: NCI tumour cell line growth inhibition, 48 h
Activity calls are given as the source filed them. Cut-off read from the data, not from the text of the source: active = GI50 up to about 1.1 µM and inactive = higher.
Choose the fitting class; nothing outside active, inactive is accepted.

| compound | group |
| --- | --- |
| O=c1[nH]nc(Cc2ccccc2)n1/N=C/c1cccs1 | inactive |

Lab log entry: Cc1cc(N(CCC#N)CCC#N)ccc1C(/N=N/c1ccc(C(=O)O)cc1)=N\NC(=O)c1ccccc1 — outcome as called in the assay?
inactive

---

- Tested on: BT-549
- protocol: NCI tumour cell line growth inhibition, 48 h
Activity calls are given as the source filed them. Rule as the data show it: active = GI50 up to about 1.1 µM and inactive = higher.
Examples of molecules with documented GI50 follow.

| molecule | recorded-value |
| --- | --- |
| N=C(N)N/N=C/c1ccc(O)c(C(=O)O)c1 | > 100 µM (inactive) |

Using the record for Cc1nc2c(=O)[nH]ncc2[nH]1 , report its GI50.
> 100 µM (inactive)

Using the record for CC(=O)Nc1ccc(C2SCc3nc4ccccc4n32)cc1 (configuration not stated) , report its GI50.
> 35.7 µM (inactive)

Using the record for C[C@]12CC[C@@H]3c4ccc(O)cc4CC[C@H]3[C@@H]1CC[C@@H]2OP(=O)(O)O , report its GI50.
> 100 µM (inactive)

---

- Test system: UACC-257
- protocol: NCI tumour cell line growth inhibition, 48 h
Active and inactive are the calls of the source. Cut-off read from the data, not from the text of the source: active = GI50 up to about 1.1 µM and inactive = higher.
Choose the fitting class; nothing outside active, inactive is accepted.

| compound | system | group |
| --- | --- | --- |
| CCC1(CC)C(=O)NN(C(=O)c2ccccc2)C1=O | UACC-257 | inactive |
| COc1ccc(C(=O)CC2=Nc3nnc(CCCCCCCc4nnc5n4C(=O)C(CC(=O)c4ccc(OC)cc4)=N5)n3C2=O)cc1 | UACC-257 | inactive |

Lab log entry: COc1cc(C2c3cc4c(cc3OC(N3CCCC3)C2C)OCO4)cc(OC)c1OC (stereo not drawn) — outcome as called in the assay?
active

---

- System: SNB-19
- protocol: NCI tumour cell line growth inhibition, 48 h
Activity calls are given as the source filed them. Cut-off read from the data, not from the text of the source: active = GI50 up to about 1.1 µM and inactive = higher.
measured-property: GI50

Some molecules with known GI50 results, for comparison:
| molecule | measured-property | recorded-value |
| --- | --- | --- |
| O=c1[nH]c(=O)n(C2OC(CO)C(O)C2O)c2ncc(-c3ccc(-c4ccccc4)cc3)nc12 (stereo unspecified) | GI50 | > 20 µM (inactive) |
| CC(C)=NNC(=S)NC12CC3CC(CC(C3)C1)C2 | GI50 | > 100 µM (inactive) |
| CCOC(=O)c1sc2c(C(=O)OCC)n3cc(C)cc(C)c3c2c1O | GI50 | > 100 µM (inactive) |
| O=C1Cc2c([nH]c3ccccc23)-c2cc(Br)ccc2N1 | GI50 | > 100 µM (inactive) |
| CC(=O)CC(OC(C)=O)C1=CCC2C(CC1C)OC(=O)C2C (stereo unspecified) | GI50 | > 100 µM (inactive) |

Using the record for CC(C)CC12CC3CCC(CNC1=O)C32C (stereo unspecified) , report its GI50.
> 100 µM (inactive)

Using the record for COc1ccc(/C=C2\N=C(SC)N(C)C2=O)cc1 , report its GI50.
> 100 µM (inactive)

Using the record for CCN(CC)CCCC(C)NC(=O)c1cc(-c2nccn2C)nc2ccc(C)cc12 (stereo unspecified) , report its GI50.
> 100 µM (inactive)

Using the record for O=C1CCc2ccc(O)c(c2)Oc2ccc(cc2)C(Sc2ccccc2)CCO1 (stereo unspecified) , report its GI50.
19.7 µM (inactive)

Using the record for CC[n+]1c(/C=C/c2ccc(N(CCCl)CCCl)cc2)ccc2cc(Br)ccc21 , report its GI50.
1.22 µM (inactive)

Using the record for O=C1CSc2ccncc2N1 , report its GI50.
8.93 µM (inactive)

---

- System: RXF 393
- protocol: NCI tumour cell line growth inhibition, 48 h
Activity calls are given as the source filed them. Rule as the data show it: active = GI50 up to about 1.1 µM and inactive = higher.
Choose the fitting class; nothing outside Y for active, N for inactive is accepted.

Here are 5 compounds together with their reported answers.
| compound | group |
| --- | --- |
| CC(=O)O[C@]12CCC[C@H]1C1(O)C(O)CCC[C@H]12 (stereo not given in full) | N |
| COC1CC(OC)C(O)C(CO)O1 (stereo not given) | N |
| C/C=C(/CCCCNCCCC)[Si](C)(C)C | N |
| C[n+]1c2ccccc2n2c3ccccc3c(NCCc3ccccn3)c(C#N)c21 | Y |
| CC(C)(C)c1cc(C(O)(C(F)(F)F)C(F)(F)F)c2c(c1)C(C(F)(F)F)(C(F)(F)F)OC(C(C)(C)C)N2 (stereo not given) | Y |

Lab log entry: O=c1[nH]c(C2CCCCC2)nc2c(Cl)cccc12 — outcome as called in the assay?
N

Lab log entry: CC1=C(C(=O)OC(C)(C)C)C(c2ccc([N+](=O)[O-])cc2)C(C(=O)OC(C)(C)C)=C(C)N1 — outcome as called in the assay?
N

Lab log entry: NCCc1c[nH]c2ccc(OC(=O)C(=O)O)cc12 — outcome as called in the assay?
N

Lab log entry: CCOC(=O)Nc1nn[nH]c1Cl — outcome as called in the assay?
N

Lab log entry: CCOC(OC1=C(C#N)CCCC1)C(CC)[Se]c1ccccc1 (stereo not given) — outcome as called in the assay?
N

Lab log entry: Cc1ccc2nc3n(c2c1)C(c1c(F)cccc1F)SC3 (stereo not given) — outcome as called in the assay?
N

Lab log entry: COc1cc2c3c(c1)c1cc(OC)c(OC)cc1c[n+]3CC2 — outcome as called in the assay?
N

Lab log entry: Cc1cccc2nc3cccc(C(=O)NCCC[N+](C)(CCCNC(=O)c4cccc5nc6cccc(C)c6nc45)Cc4c([N+](=O)[O-])ncn4C)c3nc12 — outcome as called in the assay?
N

---

- Tested on: SNB-19
- protocol: NCI tumour cell line growth inhibition, 48 h
Active and inactive are the calls of the source. Cut-off read from the data, not from the text of the source: active = GI50 up to about 1.1 µM and inactive = higher.
measured-property: GI50

Some compounds with known GI50 results, for comparison:
| compound | measured-property | recorded-value |
| --- | --- | --- |
| O=[N+]([O-])c1ccc(N2CCC(CCCC3CCN(c4ccc([N+](=O)[O-])cc4[N+](=O)[O-])CC3)CC2)c([N+](=O)[O-])c1 | GI50 | 16.1 µM (inactive) |
| NCCc1c[nH]c2ccc(OC(=O)C(=O)O)cc12 | GI50 | > 100 µM (inactive) |
| Cc1ccc2ccc(O)cc2c1 | GI50 | > 100 µM (inactive) |

Next up:
Using the record for CCOC(OC1=C(C#N)CCCC1)C(CC)[Se]c1ccccc1 (centres undefined) , report its GI50.
39.9 µM (inactive)

---

Examples of compounds with documented GI50 follow.
- Test system: UO-31
- protocol: NCI tumour cell line growth inhibition, 48 h
The source made the active and inactive calls. No stated cut-off is given here; in the data, active = GI50 up to about 1.1 µM and inactive = higher.

| compound | GI50 |
| --- | --- |
| O=C1Cc2c([nH]c3ccc(C(=O)O)cc23)-c2ccccc2N1 | > 100 µM (inactive) |
| Cc1cc(N(CCC#N)CCC#N)ccc1C(/N=N/c1ccc(C(=O)O)cc1)=N\NC(=O)c1ccccc1 | 42.7 µM (inactive) |

Next up:
Using the record for COc1ccc2c(c1)C(O)(C(F)(F)F)c1cc(C(=O)C(F)(F)F)c3ccccc3c1N2 (stereo not drawn) , report its GI50.
9.86 µM (inactive)

---

- Test system: CAKI-1
- protocol: NCI tumour cell line growth inhibition, 48 h
The source made the active and inactive calls. No stated cut-off is given here; in the data, active = GI50 up to about 1.1 µM and inactive = higher.
Choose the fitting class; nothing outside 1 (yes) (active), 0 (no) (inactive) is accepted.

Here are 8 compounds together with their reported answers.
| compound | system | group |
| --- | --- | --- |
| COc1ccc2c(c1)CCN=C2Cc1cc(OC)c(OC)cc1CCCl | CAKI-1 | 0 (no) |
| CNn1c(-c2ccc(C)cc2)n[nH]c1=O | CAKI-1 | 0 (no) |
| COC1=C(C)C(=O)C2=C(C1=O)C1C3CC4=C(C(=O)C(OC)=C(C)C4=O)C(CNC(=O)C(C)O)N3C(C#N)C(C2)N1C (centres undefined) | CAKI-1 | 1 (yes) |
| CC(C)(C)c1cc(C(O)(C(F)(F)F)C(F)(F)F)c2c(c1)C(C(F)(F)F)(C(F)(F)F)OC(C(C)(C)C)N2 (centres undefined) | CAKI-1 | 0 (no) |
| O=C1Cc2c([nH]c3ccccc23)-c2cc(Br)ccc2N1 | CAKI-1 | 0 (no) |
| NC1=Nc2ccccc2Sc2cccc(F)c21 | CAKI-1 | 0 (no) |
| Cn1c2c(c3ccccc31)CCN(CCN1CCN(c3ccccc3)CC1)C2=O | CAKI-1 | 0 (no) |
| CNC(=O)OCc1c(COC(=O)NC)c(-c2ccc(Cl)c(Cl)c2)n2c1SCC2 | CAKI-1 | 0 (no) |

Lab log entry: CCCC(=O)Nc1cc(C(=O)N2C[C@@H]3C[C@]34C2=CC(=O)c2[nH]cc(C)c24)n(COC)c1 — outcome as called in the assay?
0 (no)

Lab log entry: CCOC(=O)C1=C(C)N(C2OC(COC(=O)c3ccccc3)C(OC(=O)c3ccccc3)C2OC(=O)c2ccccc2)C(=S)NC1c1ccccc1 (centres undefined) — outcome as called in the assay?
0 (no)

Lab log entry: CO/C=C(/C(=O)OC)c1ccccc1COc1cccc(C(F)(F)F)c1 — outcome as called in the assay?
0 (no)
